Tested on: SF-268 CNS
Assay: NCI-60 one-dose screen, 48 h
Conditions: 10 µM unless noted
Compounds without any hit were thinned out: in the full panel of roughly 83,000, 20% have a hit. Active and inactive are the calls of the source. How the source made its calls: active means growth percent below 10; inactive means the rest.
Possible outcomes: active, inactive

molecule | assigned_category
COc1ccc(Nc2ncccc2NC(=O)c2cn(Cc3cccc(Oc4ccccc4)c3)nn2)cc1 | inactive
Nc1c2c(c(O)c3c1=C(CO)C=N3)=NCCS2=O (centres undefined) | active
O=C(Nc1ccc(N=Nc2ccccc2)cc1)c1cccc2ccccc12 | inactive
Cc1cc(C)n(CC(=O)Nc2ccc(-c3nc4ccccc4s3)cc2)n1 | inactive

====

growth for assorted compounds
System: TK-10 renal
Assay: NCI-60 one-dose screen, 48 h (100 = growth as untreated, 0 = no growth, -100 = all killed)
Conditions: 10 µM unless noted
This is part of a sample that, as a whole, favours compounds with a hit. Of some 83,000 tested, about 20% had one in any assay.

compound | growth [%]
C[C@@H](Nc1cc(F)cc(F)c1)c1cc(C(=O)N(C)C)cc2c(=O)cc(N3CCOCC3)oc12 | 32.8
CNC(=O)c1ccccc1Nc1nc(Nc2ccc3c(c2OC)CCC[C@H](N2CCN(CCO)CC2)C3)ncc1Cl | 26.2
Cc1sc2c(c1C)c(=O)nc1c(-c3nc4ccccc4s3)n[nH]n12 | 140
CCCCCCCC(=O)SCC/C=C/[C@@H]1CC(=O)NCc2cccc(n2)C2=N[C@@](C)(CS2)C(=O)N[C@@H](C(C)C)C(=O)O1 | -16.1
CNC(=O)c1cc(Oc2cccc3nc(Nc4ccc(Oc5ccccc5)cc4)ccc23)ccn1 | 78.5
CS(=O)(=O)N1CCc2c(-c3cnc(N)nc3)nc(N3CCOCC3)nc21 | -21.4
CC(=Nc1ccccc1)C1=C(O)C(Cc2ccc(O)cc2)NC1=O (configuration not stated) | 68.2
O=C(Nc1cccc([N+](=O)[O-])c1)c1ccc(Cl)c(Cl)c1 | 49.9
COc1cc2ncnc3c2cc1OCCCCCN(C)Cc1ccc(Br)cc1N3 | 3.42
COc1ccc(-n2c(=O)c3ccccc3n(Cc3ccc(C(=O)NO)cc3)c2=O)cc1 | 19.6
C[C@@H](NC(=O)c1ncnc(N)c1Cl)c1ncc(C(=O)Nc2cc(C(F)(F)F)c(Cl)cn2)s1 | 77.4
c1cc(OCCN2CCCCC2)cc(-c2n[nH]c3ccc(-c4ncn[nH]4)cc23)c1 | 74.5
